B1: NFE2L1 (parent)
chain: TLDGYGIHPKSIDLDNYFTARRLL

Variants of: B1
Assay: protein stability index of a GFP-peptide fusion (GPS, HEK-293T) (PSI 1-6); higher = more stable;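 note: lentivirally expressed fusions sorted by FACS into six bins by GFP to DsRed ratio, PSI derived from sequencing read proportions per bin multiplied by bin number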
Conditions: c terminus: a fixed tail appended
QUANTITY KIND: protein stability index
Output spec: single numeric token, no unit.

{"columns": ["VARIANT DESCRIPTOR", "ASSAY VALUE"],
 "data": [
  ["I7R", 2.04]
]}

Task item: Name the recorded protein stability index for `A20N` .
Reply: 1.49

Task item: Field request: protein stability index | item: `T19E`
Reply: 2.09

Task item: Query (variant): `G6W` ; field requested: protein stability index
Reply: 1.54
